molecular target: DNA topoisomerase II (Homo sapiens) (UniProt P11388+Q02880); test: Percentage of intracellular covalent DNA-topoisomerase II complexes formed; format: cell-based
measurement.type: Complex formation (%)
The answer is to be given in %; state only the numeric part.

get_value(item= COc1cc([C@@H]2c3cc4c(cc3C(Nc3ccc(O)cc3)[C@H]3COC(=O)[C@H]23)OCO4)cc(O)c1O (some centres not stated) , readout=Complex formation) returns 83

Complex formation in this record for COc1cc([C@@H]2c3cc(O)c(O)cc3[C@@H](Nc3ccccc3)[C@H]3COC(=O)[C@H]23)cc(OC)c1O : 4

// Complex formation lookup, molecule = COc1cc([C@@H]2c3cc4c(cc3[C@@H](Nc3cc(OC)c(OC)c(OC)c3)[C@H]3COC(=O)[C@H]23)OCO4)cc(OC)c1O , result: 47

Entry under test: COc1cc([C@@H]2c3cc4c(cc3C(Nc3ccc(Cl)cc3)[C@H]3COC(=O)[C@H]23)OCO4)cc(O)c1O (some centres not stated) . Its Complex formation was 77

// Complex formation value for COc1cc2c(cc1OC)[C@@H](c1cc(OC)c(O)c(OC)c1)[C@H]1C(=O)OC[C@@H]1C2Nc1ccc(F)cc1 (some centres not stated) : 108

Reported Complex formation ( COc1cc([C@@H]2c3cc4c(cc3[C@@H](Oc3ccc(O)cc3)[C@H]3COC(=O)[C@H]23)OCO4)cc(OC)c1O ) = 34

For COc1cc([C@@H]2c3cc4c(cc3C(Nc3ccc(C(C)=O)cc3)[C@H]3COC(=O)[C@H]23)OCO4)cc(O)c1O (some centres not stated) the molecule record lists Complex formation as 147

###

Please respond with reported Complex formation for every item in the list.
target: DNA topoisomerase II (Homo sapiens) (UniProt P11388+Q02880); experiment: Percentage of intracellular covalent DNA-topoisomerase II complexes formed; type: cell-based
Your answer is read as %, so omit the unit and give the number.

In plain terms, COc1cc([C@@H]2c3cc4c(cc3[C@@H](Nc3ccc(N5CCOCC5)cc3)[C@H]3COC(=O)[C@H]23)OCO4)cc(OC)c1O has a documented Complex formation of 140

According to the records, this molecule COc1cc([C@@H]2c3cc4c(cc3[C@@H](NCc3ccccc3N)[C@H]3COC(=O)[C@H]23)OCO4)cc(OC)c1O displays Complex formation of 184

Looking up COc1cc([C@@H]2c3cc4c(cc3[C@@H](Nc3cnc5ccccc5c3)[C@H]3COC(=O)[C@H]23)OCO4)cc(OC)c1O , I found its Complex formation recorded as 123

The reported value for COc1cccc(N[C@@H]2c3cc4c(cc3[C@@H](c3cc(OC)c(O)c(OC)c3)[C@H]3C(=O)OC[C@@H]32)OCO4)c1 in terms of Complex formation is 104

###

target: DNA topoisomerase II (Homo sapiens) (UniProt P11388+Q02880); assay: Percentage of intracellular covalent DNA-topoisomerase II complexes formed; type: cell-based
measurement.type: Complex formation (%)
Could you give me the number in %? Just the number is fine.

The compound COc1cc([C@@H]2c3cc4c(cc3[C@@H](NC(=O)c3cccc(C#N)c3)[C@H]3COC(=O)[C@H]23)OCO4)cc(OC)c1O showed Complex formation equal to 149

Looking up COc1cc([C@@H]2c3cc4c(cc3[C@@H](NC(=O)c3ccc(C(C)=O)cc3)[C@H]3COC(=O)[C@H]23)OCO4)cc(OC)c1O , I found its Complex formation recorded as 124

Value of measured Complex formation for the entry COc1cc([C@@H]2c3cc4c(cc3[C@@H](Nc3nc5ccccc5[nH]3)[C@H]3COC(=O)[C@H]23)OCO4)cc(OC)c1O : 58

The compound listed as COc1cc2c(cc1OC)[C@@H](c1cc(OC)c(OC)c(OC)c1)[C@H]1C(=O)OC[C@@H]1C2Nc1ccc(F)cc1 (some centres undefined) shows Complex formation equal to 8

// field: Complex formation; key: COc1ccc(NC2c3cc4c(cc3[C@@H](c3cc(O)c(O)c(OC)c3)[C@H]3C(=O)OC[C@H]23)OCO4)cc1OC (some centres undefined) ; value = 69

# Complex formation of C=CCN[C@@H]1c2cc3c(cc2[C@@H](c2cc(OC)c(O)c(OC)c2)[C@H]2C(=O)OC[C@@H]21)OCO3 = 84.1

Record COc1cc([C@@H]2c3cc4c(cc3[C@@H](Nc3ccccc3Cl)[C@H]3COC(=O)[C@H]23)OCO4)cc(OC)c1O , field Complex formation: 32

So, COc1cc([C@@H]2c3cc4c(cc3[C@@H](NCc3cccc([N+](=O)[O-])c3)[C@H]3COC(=O)[C@H]23)OCO4)cc(OC)c1O ? Its Complex formation was 130

GET /value?item= COc1cc([C@@H]2c3cc4c(cc3[C@@H](NC(=O)Nc3ccccc3)[C@H]3COC(=O)[C@H]23)OCO4)cc(OC)c1O &field=Complex formation returns 148

Looking up COc1cc([C@@H]2c3cc4c(cc3[C@@H](NC(=O)Nc3ccc(F)cc3)[C@H]3COC(=O)[C@H]23)OCO4)cc(OC)c1O , I found its Complex formation recorded as 118

Looking up COc1cc([C@@H]2c3cc4c(cc3[C@@H](NCc3cccc(C#N)c3)[C@H]3COC(=O)[C@H]23)OCO4)cc(OC)c1O , I see its Complex formation listed as 225

Noted for COc1cc([C@@H]2c3cc4c(cc3[C@@H](NC[C@H](C)O)[C@H]3COC(=O)[C@H]23)OCO4)cc(OC)c1O : its Complex formation reads 167

Note to self: Complex formation recorded for COc1cc([C@@H]2c3cc(O)c(O)cc3[C@@H](Nc3ccc([N+](=O)[O-])cc3)[C@H]3COC(=O)[C@H]23)cc(OC)c1OC was 23

// field: Complex formation; key: COc1cc([C@@H]2c3cc4c(cc3[C@@H](NC(=O)c3ccc(C#N)cc3)[C@H]3COC(=O)[C@H]23)OCO4)cc(OC)c1O ; value = 159

###

Give Complex formation for every item shown.
biological target: DNA topoisomerase II (Homo sapiens) (UniProt P11388+Q02880); assay: Percentage of intracellular covalent DNA-topoisomerase II complexes formed; assay type: cell-based
Your answer should be a number followed by the unit of measure.

Just so you know, measured Complex formation for COCCN[C@@H]1c2cc3c(cc2[C@@H](c2cc(OC)c(O)c(OC)c2)[C@H]2C(=O)OC[C@@H]21)OCO3 came out at 111%

So for COc1cc([C@@H]2c3cc4c(cc3[C@@H](Nc3cc(N)ccc3O)[C@H]3COC(=O)[C@H]23)OCO4)cc(OC)c1O , the logged Complex formation turned out to be 11%

GET /value?item= CCOC(=O)c1ccccc1N[C@@H]1c2cc3c(cc2[C@@H](c2cc(OC)c(O)c(OC)c2)[C@H]2C(=O)OC[C@@H]21)OCO3 &field=Complex formation returns 4%

get_value(item= CNC(=O)N[C@@H]1c2cc3c(cc2[C@@H](c2cc(OC)c(O)c(OC)c2)[C@H]2C(=O)OC[C@@H]21)OCO3 , readout=Complex formation) returns 81%

Short answer for COc1cc([C@@H]2c3cc4c(cc3[C@@H](Nc3ccc(-c5nc6ccccc6[nH]5)cc3)[C@H]3COC(=O)[C@H]23)OCO4)cc(OC)c1O : Complex formation was 128%

Complex formation recorded for this compound, COc1cc([C@@H]2c3cc4c(cc3[C@@H](OC(=O)c3ccc(N)cc3)[C@H]3COC(=O)[C@H]23)OCO4)cc(OC)c1O , is 94%

For record COc1cc([C@@H]2c3cc4c(cc3[C@@H](NCc3ccc(C#N)cc3)[C@H]3COC(=O)[C@H]23)OCO4)cc(OC)c1O the listed Complex formation is 284%

// recorded Complex formation for COc1cc([C@@H]2c3cc4c(cc3[C@@H](NCc3ccccc3[N+](=O)[O-])[C@H]3COC(=O)[C@H]23)OCO4)cc(OC)c1O : 144%

// sample COc1cc(CN[C@@H]2c3cc4c(cc3[C@@H](c3cc(OC)c(O)c(OC)c3)[C@H]3C(=O)OC[C@@H]32)OCO4)cc(OC)c1 , its Complex formation was 144%

The reported value for COc1cc([C@@H]2c3cc4c(cc3[C@@H](Nc3cccc(F)c3)[C@H]3COC(=O)[C@H]23)OCO4)cc(OC)c1O in terms of Complex formation is 158%

Lab book: Complex formation of COc1cc([N+](=O)[O-])ccc1N[C@@H]1c2cc3c(cc2[C@@H](c2cc(OC)c(O)c(OC)c2)[C@H]2C(=O)OC[C@@H]21)OCO3 noted as 83%

So for COc1cc([C@@H]2c3cc4c(cc3[C@@H](NC(=O)c3ccccc3O)[C@H]3COC(=O)[C@H]23)OCO4)cc(OC)c1O , the logged Complex formation turned out to be 160%

Measured Complex formation of CCOC(=O)c1ccc(N[C@@H]2c3cc4c(cc3[C@@H](c3cc(OC)c(O)c(OC)c3)[C@H]3C(=O)OC[C@@H]32)OCO4)cc1 : 207%

The compound listed as COc1ccc(NC2c3cc4c(cc3[C@@H](c3cc(O)c(O)c(OC)c3)[C@H]3C(=O)OC[C@H]23)OCO4)cc1 (stereo partly drawn) shows Complex formation equal to 96%

Complex formation reported for this compound COc1cc([C@@H]2c3cc4c(cc3C(Nc3cccc([N+](=O)[O-])c3)[C@H]3COC(=O)[C@H]23)OCO4)cc(O)c1O (stereo partly drawn) : 75%

The reported Complex formation of the compound COc1cc([C@@H]2c3cc4c(cc3[C@@H](NC(=O)c3ccc(N)cc3)[C@H]3COC(=O)[C@H]23)OCO4)cc(OC)c1O was 120%

Notebook: COc1cc([C@@H]2c3cc4c(cc3[C@@H](NC(=O)c3ccc(F)cc3)[C@H]3COC(=O)[C@H]23)OCO4)cc(OC)c1O , Complex formation read as 117%

Just so you know, measured Complex formation for COc1cc([C@@H]2c3cc4c(cc3[C@@H](NCc3cccc(F)c3)[C@H]3COC(=O)[C@H]23)OCO4)cc(OC)c1O came out at 216%

get_value(item= COc1cc([C@@H]2c3cc4c(cc3[C@@H](Nc3ccc5c(c3)OCCO5)[C@H]3COC(=O)[C@H]23)OCO4)cc(OC)c1O , readout=Complex formation) returns 279%

Lookup result for COc1ccc([N+](=O)[O-])cc1N[C@@H]1c2cc3c(cc2[C@@H](c2cc(OC)c(O)c(OC)c2)[C@H]2C(=O)OC[C@@H]21)OCO3 ; measured Complex formation: 12%

COc1cc([C@@H]2c3cc4c(cc3[C@@H](Nc3ccc(O)cc3)[C@H]3COC(=O)[C@H]23)OCO4)cc(OC)c1O has a reported Complex formation of 211%

Value of measured Complex formation for the entry COc1cc([C@@H]2c3cc4c(cc3[C@@H](OC(=O)c3cccc(N)c3)[C@H]3COC(=O)[C@H]23)OCO4)cc(OC)c1O : 100%

Value of measured Complex formation for the entry COc1cc([C@@H]2c3cc4c(cc3[C@@H](Nc3ccccc3F)[C@H]3COC(=O)[C@H]23)OCO4)cc(OC)c1O : 121%

Reference source for all entries: ChEMBL document CHEMBL1135425
